System: HOP-92 NSCLC
Assay: NCI-60 one-dose screen, 48 h
Conditions: 10 µM unless noted
Compounds without any hit were thinned out: in the full panel of roughly 83,000, 20% have a hit. Calls of active or inactive are those of the source. The calls were made as follows: active = growth percent below 10; inactive = the rest.
Entry note: the call must match one of active, inactive

Write down the call the test reported for this compound. Item: `CC(C)OC(=O)c1ccc2[nH]c(O)c(C(=Nc3ccc(N(C)C(=O)CN4CCN(C)CC4)cc3)c3ccccc3)c2c1`
active

Would you mind telling me which call this test gave `C#Cc1ccc(NC(=O)c2ccc(/C=C/C(=O)c3nccn3C)cc2)cc1` ?
active

Recorded test outcome, item `CCCCC(=O)c1ccco1`
inactive

Status in this test for `N#Cc1c(N)nnn1Cc1cc(=O)oc2c1ccc1ccccc12` ?
inactive

Tell me the assay call for `O=Cc1ccc([N+](=O)[O-])s1` please.
inactive

Field: outcome | Entry: Cc1ccc(C(C(N)=O)C(C(N)=O)c2ccccc2)cc1 (configuration not stated)
inactive

Assay result, entry `N#Cc1cnc(NCCc2ccncc2)nc1-n1cnc2ccccc21` — outcome?
inactive

For this compound, state the assay outcome: `Cc1nc2c(=O)[nH]c(SCC(=O)Nc3cccc(F)c3)nc2[nH]c1=O`
inactive

Assay result, entry `C=C1C(=O)O[C@H]2[C@H]1CC/C(COC(=O)NCc1cc[nH]c1)=C\CC[C@@]1(C)O[C@@H]21` — outcome?
inactive

Cited source: PubChem BioAssay (NCI)
